Provide the reported % of binding in the absence of HGF of each item.
- target_or_test_system: T1, cMet-Fc fusion protein (extracellular domain of the cMet receptor expressed as an Fc-fusion protein) (human, UniProt P08581 25-932)
- T1 construct: extracellular domain; also called soluble cMet-Fc-fusion protein; soluble cMet receptor; not shown: Fc part
- T1 sequence (P08581 25-932): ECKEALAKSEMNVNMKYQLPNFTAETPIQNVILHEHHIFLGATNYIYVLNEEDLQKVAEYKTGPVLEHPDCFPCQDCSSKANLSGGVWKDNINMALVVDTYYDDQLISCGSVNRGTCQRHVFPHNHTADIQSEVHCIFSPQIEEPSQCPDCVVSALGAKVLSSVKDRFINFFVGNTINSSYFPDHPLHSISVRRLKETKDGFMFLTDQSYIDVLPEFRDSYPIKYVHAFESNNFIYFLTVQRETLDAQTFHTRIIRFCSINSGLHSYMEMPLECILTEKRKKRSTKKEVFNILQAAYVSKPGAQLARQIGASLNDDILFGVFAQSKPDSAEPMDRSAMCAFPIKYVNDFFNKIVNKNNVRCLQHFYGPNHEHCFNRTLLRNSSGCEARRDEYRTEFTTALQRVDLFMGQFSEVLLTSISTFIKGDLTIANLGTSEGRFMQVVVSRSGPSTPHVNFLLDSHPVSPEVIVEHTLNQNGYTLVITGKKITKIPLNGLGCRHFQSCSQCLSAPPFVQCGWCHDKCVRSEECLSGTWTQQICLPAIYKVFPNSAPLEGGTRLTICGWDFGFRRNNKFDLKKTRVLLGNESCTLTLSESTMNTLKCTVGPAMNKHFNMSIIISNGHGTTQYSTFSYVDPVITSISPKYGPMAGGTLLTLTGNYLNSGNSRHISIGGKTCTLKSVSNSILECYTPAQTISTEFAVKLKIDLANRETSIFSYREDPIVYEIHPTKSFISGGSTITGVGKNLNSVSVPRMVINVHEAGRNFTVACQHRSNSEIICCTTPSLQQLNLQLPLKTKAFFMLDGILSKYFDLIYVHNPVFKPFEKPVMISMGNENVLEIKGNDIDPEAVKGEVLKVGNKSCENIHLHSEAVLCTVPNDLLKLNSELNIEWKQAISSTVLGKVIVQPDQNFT
- experiment: phage ELISA on cMet-Fc, competitor HGF 100 ng/mL
Answers are plain numbers, in %.

Consider the following illustrative entries.
{"columns": ["binder", "% of binding in the absence of HGF / %"],
 "data": [
  ["AGETKCSGPPYFYCWMEGT [545-E04 peptide-displaying phage (SEQ ID NO: 093)]", 48],
  ["GDLLVCKFDDKFWTETCEWADP [549-G05 peptide-displaying phage (SEQ ID NO: 392)]", 28],
  ["AGSWECTGPPSFHCQWYGT [551-G12 peptide-displaying phage (SEQ ID NO: 070)]", 88],
  ["AGVTNCNLSTMFCFLHGT [465-F08 peptide-displaying phage (SEQ ID NO: 026)]", 68],
  ["GSFNICPYQWCTLWAP [561-C08 peptide-displaying phage (SEQ ID NO: 010)]", 92],
  ["AQKETWEFFDIVYGSGWKFNSP [116-H02 peptide-displaying phage (SEQ ID NO: 466)]", 84]
]}

Give the value of % of binding in the absence of HGF reported for the following: AQRWSSPGMSQSFVLEWKWNDN [118-A08 peptide-displaying phage (SEQ ID NO: 453)]
85
